Please provide measured growth for the entries that follow.
tested on: MDA-MB-231 breast; assay: NCI-60 one-dose screen, 48 h (100 = growth as untreated, 0 = no growth, -100 = all killed); details: 10 µM
The panel holds about 83,000 compounds, 20% with a hit somewhere; the sample as a whole holds those more often.
Reply with just the number (in %).

# lookup: growth of CCOC(=O)C1=C(N)N(c2ccc(Cl)cc2)C2=C(C(=O)CC(C)(C)C2)C1c1ccc(N2CCOCC2)cc1 (centres undefined)
87.3

// query: `COc1cc2c3c(n(CCCN4CCOCC4)c(=O)c2cc1OC)-c1nc2c(cc1C3=O)OCO2`
6.41

// query: `CS(=O)(=O)Nc1ccc(-c2ccc3c(c2)ncn3-c2ccc(NC(=O)Nc3ccc(Br)cc3)cc2)cc1`
13.6

// query: O=C(c1ccc(Cl)cc1)C1[C@H](c2ccc(Br)cc2)[C@@H](c2ccccc2)NC12C(=O)Nc1ccc(Br)cc12 (some centres undefined)
-96.1
